System: 282377-053-R-J1-PDC complex spheroid viability
procedure_details: Anticancer human tumor 282377-053-R-J1-PDC patient-derived colon adenocarcinoma cell line growth inhibition [RAS]
protocol_conditions: second compound 0.00316 µM; first compound 3.16 µM; active compounds read low
experimental_readout: viability, T/C (%)
Respond numerically; units are % and should not be typed.

Known results for molecules:
NC1c2ccccc2OC12CCN(c1cnc3c(N4CCCc5ncccc54)n[nH]c3n1)CC2 (configuration not stated) + C=CC(=O)N1CCN(c2nc(OCC3CCCN3C)nc3c(F)c(-c4nc(N)cc(C)c4C(F)(F)F)c(Cl)cc23)C(C)C1	105
C[C@@H](NC(=O)c1ncnc(N)c1Cl)c1ncc(C(=O)Nc2cc(C(F)(F)F)c(Cl)cn2)s1 + C=CC(=O)N1CCN(c2nc(OCC3CCCN3C)nc3c(F)c(-c4nc(N)cc(C)c4C(F)(F)F)c(Cl)cc23)C(C)C1	69.5
CC(C)NCC(C(=O)N1CCN(c2ncnc3c2C(C)CC3O)CC1)c1ccc(Cl)cc1 (configuration not stated) + C=CC(=O)N1CCN(c2nc(OCC3CCCN3C)nc3c(F)c(-c4nc(N)cc(C)c4C(F)(F)F)c(Cl)cc23)C(C)C1	88.8
Cc1nc(N2CCC3(CC2)COC(C)C3N)c(CO)nc1Sc1ccnc(N)c1Cl (configuration not stated) + C=CC(=O)N1CCN(c2nc(OCC3CCCN3C)nc3c(F)c(-c4nc(N)cc(C)c4C(F)(F)F)c(Cl)cc23)C(C)C1	108
CC(Nc1ccc2c(c1)OCCn1cc(N3C(=O)OCC3C(F)F)nc1-2)C(N)=O (configuration not stated) + C=CC(=O)N1CCN(c2nc(OCC3CCCN3C)nc3c(F)c(-c4nc(N)cc(C)c4C(F)(F)F)c(Cl)cc23)C(C)C1	78.9
CC1(O)CCCC1n1c(=O)c(C(F)F)cc2cnc(NC3CCN(S(C)(=O)=O)CC3)nc21 (configuration not stated) + C=CC(=O)N1CCN(c2nc(OCC3CCCN3C)nc3c(F)c(-c4nc(N)cc(C)c4C(F)(F)F)c(Cl)cc23)C(C)C1	109

// switching to the query molecule
# viability, T/C lookup, item CCC(CC)c1cc(NC2CCC(N)C2)n2nccc2n1 (configuration not stated) + C=CC(=O)N1CCN(c2nc(OCC3CCCN3C)nc3c(F)c(-c4nc(N)cc(C)c4C(F)(F)F)c(Cl)cc23)C(C)C1 7.62

----------
Test system: 282377-053-R-J1-PDC complex spheroid viability
procedure_details: Anticancer human tumor 282377-053-R-J1-PDC cell line growth inhibition [RAS];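 also: spheroids exposed to agents for seven days before readout; luminescence viability as percent of DMSO vehicle control wells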
protocol_conditions: second compound 0.0949 µM; first compound 0.1 µM; active compounds read low
experimental_readout: viability, T/C (%)
Respond numerically; units are % and should not be typed.

Known results for molecules:
CCN1CCN(Cc2ccc(Nc3ncc(F)c(-c4cc(F)c5nc(C)n(C(C)C)c5c4)n3)nc2)CC1 + CCn1c(-c2cccnc2C(C)OC)c2c3cc(ccc31)N1CCOC(CC(NC(=O)C(C(C)C)N(C)C(=O)C3(F)CCN(C(=O)C#CC(C)(C)N(C)C)CC3)C(=O)N3CCCC(N3)C(=O)OCC(C)(C)C2)C1	116
CC(=O)OC12COC1CC(O)C1(C)C(=O)C(O)C3=C(C)C(OC(=O)C(O)C(NC(=O)OC(C)(C)C)c4ccccc4)CC(O)(C(OC(=O)c4ccccc4)C21)C3(C)C (stereo not drawn) + CCn1c(-c2cc(N3CCN(C)CC3)cnc2C(C)OC)c2c3cc(ccc31)-c1csc(n1)CC(NC(=O)C1CC1C)C(=O)N1CCCC(N1)C(=O)OCC(C)(C)C2	49.4
CCC(CC)c1cc(NC2CCC(N)C2)n2nccc2n1 (stereo not drawn) + CCn1c(-c2cccnc2C(C)OC)c2c3cc(ccc31)N1CCOC(CC(NC(=O)C(C(C)C)N(C)C(=O)C3(F)CCN(C(=O)C#CC(C)(C)N(C)C)CC3)C(=O)N3CCCC(N3)C(=O)OCC(C)(C)C2)C1	110

# viability, T/C lookup, item CC(C)n1nc(-c2ccc3oc(N)nc3c2)c2c(N)ncnc21 + CCn1c(-c2cc(N3CCN(C)CC3)cnc2C(C)OC)c2c3cc(ccc31)-c1csc(n1)CC(NC(=O)C1CC1C)C(=O)N1CCCC(N1)C(=O)OCC(C)(C)C2 39.5

# viability, T/C lookup, item O=C(c1ccc(F)c(F)c1Nc1ccc(I)cc1F)N1CC(O)([C@@H]2CCCCN2)C1 + CCn1c(-c2cc(N3CCN(C)CC3)cnc2C(C)OC)c2c3cc(ccc31)-c1csc(n1)CC(NC(=O)C1CC1C)C(=O)N1CCCC(N1)C(=O)OCC(C)(C)C2 23.8
